Variation Δ [in %] of the number of muscle contractions (2 h) overview
tested on: co-culture model of human muscle cells and neurons from the spinal marrow of rat embryos; assay: Efficacy test: frequency of muscle contractions in a nerve-muscle co-culture model; assay type: cell-based, human (myoblasts), rat (embryo spinal explants); conditions: 0.5 mM; 2 hours after incubation; contractions counted for 30 seconds, compared to number before incubation; means of 3 measurements
Non-standard residues stand in square brackets, D forms with d. Residues, ends and D or L forms follow the SMILES beside them. *: point of attachment. Dap = NC[CH](N)C(=O)O; NHBn = c1ccc(CN*)cc1
Parameter: Variation Δ [in %] of the number of muscle contractions (2 h) (%)

Compound | Assay system | Unit tag | Number
CSCC[C@H](NC(=O)[C@H](CCC(=O)O)NC(=O)[C@H](CCC(=O)O)NC(C)=O)C(=O)N[C@@H](CCC(N)=O)C(=O)N[C@@H](CCCNC(=N)N)C(=O)N[C@@H](CCCNC(=N)N)C(N)=O [Product A, Ac-Glu-Glu-Met-Gln-Arg-Arg-NH2, reference compound] (Ac-EEMQRR-NH2) | co-culture model of human muscle cells and neurons from the spinal marrow of rat embryos | % | 91
CC(N)C(=O)N1CCCC1C(=O)NC(CCCNC(=N)N)C(=O)NCc1ccccc1 (stereo not drawn) [4.2] (H-Ala-Pro-Arg-NHBn; configuration not given here) | co-culture model of human muscle cells and neurons from the spinal marrow of rat embryos | % | 37
N=C(N)NCCCC(NC(=O)C1CCCN1C(=O)C(N)CN)C(=O)NCc1ccccc1 (stereo not drawn) [4.6] (H-[Dap]-Pro-Arg-NHBn; configuration not given here) | co-culture model of human muscle cells and neurons from the spinal marrow of rat embryos | % | 42
